# target-under-test: PIK3CB;PIK3CG;PIK3CD;PIK3CA (human) (UniProt P48736)
# assay-comment: Enzyme Assay
pIC50: −log10 of the molar value.
measurement-label: pIC50

COCCNc1ccc2c(c1)S(=O)(=O)Cc1c(C(=O)N3CCOCC3)nn(-c3ccccc3)c1-2 : 5.18
O=C(c1nn(C2CCCN(CCC3CCOCC3)C2)c2c1CS(=O)(=O)c1ccccc1-2)N1CCOCC1 (configuration not stated) : 7.27
O=C(c1nn(-c2ccc(Cl)cc2)c2c1CS(=O)(=O)c1ccccc1-2)N1CCOCC1 : 6.05

I: O=C(c1cccc(-n2nc(C(=O)N3CCOCC3)c3c2-c2ccccc2S(=O)(=O)C3)c1)N1CCCCC1
II: O=C(c1nn(CCc2ccccc2)c2c1CS(=O)(=O)c1ccccc1-2)N1CCOCC1
III: COC1CCN(Cc2ccc(-n3nc(C(=O)N4CCOCC4)c4c3-c3ccccc3S(=O)(=O)C4)cc2)C1 (configuration not stated)
Q) Rank the 3 compounds: largest pIC50 first, smallest last. Lab note: final answer is the ordered label list.
A) III, I, II
(III: 7.23, I: 6.74, II: 5.84)

###

# target-under-test: PIK3CB;PIK3CG;PIK3CD;PIK3CA (human)
# assay-comment: Enzyme Assay
measurement-label: IC50 (nM)

Below are worked cases with known answers.
CC1CCC(n2nc(C(=O)N3CCOCC3)c3c2-c2ccccc2S(=O)(=O)C3)CC1 (centres undefined) : 426
Cn1nc(C(=O)N2CCOCC2)c2c1-c1cc(Br)ccc1S(=O)(=O)C2 : 1040
O=C(c1nn(-c2ccccc2)c2c1CS(=O)(=O)c1ccc(Br)cc1-2)N1CCOCC1 : 1300
CC1CN(C(=O)c2nn(-c3ccccc3)c3c2CS(=O)(=O)c2ccccc2-3)CCO1 (centres undefined) : 2160
CN1CCCC(N2CCC[C@H](n3nc(C(=O)N4CCOCC4)c4c3-c3ccccc3S(=O)(=O)C4)C2)C1 (some centres undefined) : 18
CN1CCC(OCCN2CCC[C@H](n3nc(C(=O)N4CCOCC4)c4c3-c3ccccc3S(=O)(=O)C4)C2)CC1 : 20
COCCCn1nc(C(=O)N2CCOCC2)c2c1-c1ccccc1S(=O)(=O)C2 : 907

P: O=C(c1nn(-c2ccc(CN3CCOCC3)cc2)c2c1CS(=O)(=O)c1ccc(F)cc1-2)N1CCOCC1
Q: Cn1nc(C(=O)N2CCOCC2)c2c1-c1cc([N+](=O)[O-])ccc1S(=O)(=O)C2
Q) Which has the higher IC50, P or Q ? # reply format: chosen label
A) Q
